Here, each record is paired with measured log Reduction data.
- Test system: M. tuberculosis
- Assay type: cell-based
- measurement setup: log reduction in CFU vs untreated control or MM-PS-ODN cultures; 10 μM, added once at start
In the oligonucleotide strings, read from the 5' end, every base follows the letter of its sugar. An asterisk marks phosphorothioate; unmarked linkages are phosphodiester. Other units and linkages are bracketed, terminal groups are in braces. A string of capitals states the bases alone. {FL} = fluorescein label; d = 2'-deoxy (DNA); m = 2'-O-methyl
readout: log Reduction (log)

• 5′>TC(c->g)GCGATCTGGTGTCGCTGCGGTCAT (phosphorothioate, 5' TC(c->g) prefix, further chemistry not given here) [ppsC] = 0
• 5′>CACATCCAGCGACTTGGCCAGCTC (dC*dA*dC*dA*dT*dC*dC*dA*dG*dC*dG*dA*dC*dT*dT*dG*dG*dC*dC*dA*dG*dC*dT*dC; antisense) [rfbE] = 0
• 5′>CAAGATGGACACCGTCACCGCTAC (dC*dA*dA*dG*dA*dT*dG*dG*dA*dC*dA*dC*dC*dG*dT*dC*dA*dC*dC*dG*dC*dT*dA*dC; antisense) [murX] = 0
• 5′>ACGAACCCTGTCAACAAGCTGCAT-GGGGG (antisense dA*dC*dG*dA*dA*dC*dC*dC*dT*dG*dT*dC*dA*dA*dC*dA*dA*dG*dC*dT*dG*dC*dA*dT*dG*dG*dG*dG*dG) [fbpA (SEQ ID NO: 27), antisense PS-ODN against fbpA with five Gs attached to the 3′ end] = 0.8
• 5′>GCTCTGAAACGTGCCGGTCTGAAC (dG*dC*dT*dC*dT*dG*dA*dA*dA*dC*dG*dT*dG*dC*dC*dG*dG*dT*dC*dT*dG*dA*dA*dC; antisense) [fadD26] = 0.65
• 5′>GCACGGTCTTGGCCTGGGTGAGTC (dG*dC*dA*dC*dG*dG*dT*dC*dT*dT*dG*dG*dC*dC*dT*dG*dG*dG*dT*dG*dA*dG*dT*dC; antisense) [glnA3] = 0
• 5′>TTCACCACTGATGCTTCCCGTCAT (dT*dT*dC*dA*dC*dC*dA*dC*dT*dG*dA*dT*dG*dC*dT*dT*dC*dC*dC*dG*dT*dC*dA*dT; antisense) [ppsA] = 0
• 5′>AATCCGGCTGAAAGCCGTTCGCATCAC (dA*dA*dT*dC*dC*dG*dG*dC*dT*dG*dA*dA*dA*dG*dC*dC*dG*dT*dT*dC*dG*dC*dA*dT*dC*dA*dC; antisense) [ppsB] = 0
• 5′>2′OMeACGAAC-CCTGTCAACAAG-2′OMeCTGCAT (antisense ACGAACCCTGTCAACAAGCTGCAT; sugars from the 5' end m6 d12 m6, all phosphorothioate, T or U not given here) [fbpA (SEQ ID NO: 26), antisense PS-ODN against fbpA with O-methyl groups at the 5′ and 3′ ends] = 0.4
• 5′>GGACACCTCGAGACCGTACTGCAC (dG*dG*dA*dC*dA*dC*dC*dT*dC*dG*dA*dG*dA*dC*dC*dG*dT*dA*dC*dT*dG*dC*dA*dC) [rfe] = 0.25
• 5′>AATGATTTCTTCCTGAGTGACAGGCAC (dA*dA*dT*dG*dA*dT*dT*dT*dC*dT*dT*dC*dC*dT*dG*dA*dG*dT*dG*dA*dC*dA*dG*dG*dC*dA*dC; antisense) [acpM] = 0
• 5′>FL-GCCGGGGTGTTGATATCCCAGCCG (5' {FL}, sugars by position and backbone not given here) [fbpB (SEQ ID NO: 24), antisense PS-ODN against fbpB (30 kDa protein gene) with fluorescein attached to the 5′ end] = 0.6
• 5′>2′OMeATTCTT-TCGGCTCACGTC-2′OMeTGTCAT [fbpB (SEQ ID NO: 25)] = 0.4
• 5′>CGCCGCGCGCTCCGCCAGACTTGTCAT (dC*dG*dC*dC*dG*dC*dG*dC*dG*dC*dT*dC*dC*dG*dC*dC*dA*dG*dA*dC*dT*dT*dG*dT*dC*dA*dT; antisense) [ppsD] = 0
• 5′>GCCATTAGCGGTGGAAGGCTGACTCAC (dG*dC*dC*dA*dT*dT*dA*dG*dC*dG*dG*dT*dG*dG*dA*dA*dG*dG*dC*dT*dG*dA*dC*dT*dC*dA*dC; antisense) [kasA] = 0
• 5′>GACATTCTCCCAGAACCGTTTCAC (chemistry not given here) [air, antisense PS-ODN against the alr gene (alanine racemase) transcript] = 0.2
• 5′>TTTGCCGTCCAGCAGTCCTGTCAT (chemistry not given here) [lnhA] = 0.05
• 5′>CGCGATCGCGTTCTCGGGGATGCTCAC (dC*dG*dC*dG*dA*dT*dC*dG*dC*dG*dT*dT*dC*dT*dC*dG*dG*dG*dG*dA*dT*dG*dC*dT*dC*dA*dC; antisense) [ppsE] = 0
• 5′>CGGCCCTGCATGTCGGTGAACGCG (dC*dG*dG*dC*dC*dC*dT*dG*dC*dA*dT*dG*dT*dC*dG*dG*dT*dG*dA*dA*dC*dG*dC*dG; antisense) [glnA4] = 0
• 5′>AACGGGAGTGACACGTGATTCCAT (dA*dA*dC*dG*dG*dG*dA*dG*dT*dG*dA*dC*dA*dC*dG*dT*dG*dA*dT*dT*dC*dC*dA*dT) [mas] = 0.35
